- Protocol Notes: Metabolic stability in rat liver microsomes
- Type: in vitro ADME, Sprague–Dawley rats
- Conditions: male, Sprague-Dawley, pooled rat liver microsomes; rat liver microsomes, 60 min; read-out: Remaining (%, T = 60min) Rat
List of remaining at 1 h, 0.49 µM values.
Measured Property: remaining at 1 h, 0.49 µM (%)

Compound	Measured Property	Reading
CCOc1ccc2ccc(=O)oc2c1 [Compound 7-EC, 7-ethoxycoumarin, reference compound]	remaining at 1 h, 0.49 µM	0.35
Cc1c(C#N)cccc1-c1cc(-c2cn(Cc3cccc(C(C)(C)O)n3)nn2)nc(N)n1 [AB928, reference compound]	remaining at 1 h, 0.49 µM	28.1
Cc1c(C#N)cccc1-c1cc(-c2cn(Cc3cccc(C#N)n3)nn2)nc(N)n1	remaining at 1 h, 0.49 µM	64
Cc1c(C#N)cccc1-c1cc(-c2cn(Cc3cccc(C(N)=O)n3)nn2)nc(N)n1	remaining at 1 h, 0.49 µM	50.7

* * *

- Target Entity: human A2B AR (Homo sapiens)
- Sequence (P29275 whole entry): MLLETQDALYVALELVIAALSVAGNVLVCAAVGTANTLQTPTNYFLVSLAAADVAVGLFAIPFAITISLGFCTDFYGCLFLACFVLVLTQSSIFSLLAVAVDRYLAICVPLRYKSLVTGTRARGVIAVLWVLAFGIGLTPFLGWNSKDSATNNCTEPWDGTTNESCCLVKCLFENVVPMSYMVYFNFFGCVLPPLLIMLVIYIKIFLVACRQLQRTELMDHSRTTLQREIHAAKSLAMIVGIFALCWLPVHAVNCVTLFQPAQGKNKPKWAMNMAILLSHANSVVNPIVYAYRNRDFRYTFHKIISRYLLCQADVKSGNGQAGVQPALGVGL
- Protocol Notes: cAMP functional assay in CHO-K1/ADORA2b/Gα15 cells (NECA-stimulated, HTRF)
- Assay type: cell-based
- Conditions: CHO cells expressing hA2B AR; mean ± SEM; read-out: cAMP IC50 hA2B AR

Smiles Data	IC50, nM
Cc1c(C#N)cccc1-c1cc(-c2cn(Cc3cccc(C(N)=O)n3)nn2)nc(N)n1	14.1
CC(C)(O)c1cccc(Cn2cc(-c3cc(-c4cccc(CF)c4)nc(N)n3)nn2)n1	178
Cc1ccc(-c2cc(-c3cn(Cc4cccc(C(C)(C)O)n4)nn3)nc(N)n2)o1	80

* * *

- Protocol Notes: Metabolic stability in human liver microsomes
- Type: in vitro ADME
- Conditions: male, human, microsomes

Molecule	remaining at 50 min, 0.49 µM
Cc1c(C#N)cccc1-c1cc(-c2cn(Cc3cccc(C(C)(C)O)n3)nn2)nc(N)n1 [AB928, reference compound]	89%
CCOc1ccc2ccc(=O)oc2c1 [Compound 7-EC, 7-ethoxycoumarin, reference compound]	0.97%
Cc1c(C#N)cccc1-c1cc(-c2cn(Cc3cccc(C#N)n3)nn2)nc(N)n1 [Compound 7f]	102%
Cc1c(C#N)cccc1-c1cc(-c2cn(Cc3cccc(C(N)=O)n3)nn2)nc(N)n1 [Compound 7i]	95%

* * *

- Target Entity: human A2A AR (Homo sapiens, UniProt P29274)
- Sequence (P29274 whole entry): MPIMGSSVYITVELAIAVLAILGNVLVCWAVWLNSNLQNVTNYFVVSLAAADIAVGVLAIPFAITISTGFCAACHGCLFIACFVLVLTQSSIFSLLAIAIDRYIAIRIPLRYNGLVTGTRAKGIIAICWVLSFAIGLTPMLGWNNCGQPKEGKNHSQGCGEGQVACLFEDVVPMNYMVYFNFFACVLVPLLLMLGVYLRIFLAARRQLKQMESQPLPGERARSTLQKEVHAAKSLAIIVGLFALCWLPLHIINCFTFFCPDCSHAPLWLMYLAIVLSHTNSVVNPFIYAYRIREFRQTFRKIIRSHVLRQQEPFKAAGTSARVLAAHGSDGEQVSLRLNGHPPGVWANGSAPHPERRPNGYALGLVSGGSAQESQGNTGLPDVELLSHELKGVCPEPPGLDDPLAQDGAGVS
- Protocol Notes: cAMP functional assay in CHO-K1/ADORA2A/Gα15 cells (NECA-stimulated, HTRF)
- Type: cell-based
- Conditions: CHO-K1; compound at 1000 nM; relative to ZM241385 at 1 μM; mean ± SEM; read-out: hA2A AR (%) inhibition of cAMP, 1000 nM

Smiles Data	inhibition at 1 µM [%]
Cc1c(C#N)cccc1-c1cc(-c2cn(Cc3cccc(C(=O)N4CC(O)C4)n3)nn2)nc(N)n1	94.9
Cc1ccc(-c2cc(-c3cn(Cc4cccc(C(C)(C)O)n4)nn3)nc(N)n2)o1	92.7
Cc1c(C#N)cccc1-c1cc(-c2cn(Cc3ccc4cccc(N)c4n3)nn2)nc(N)n1	48.5
Cc1c(C#N)cccc1-c1cc(-c2cn(Cc3cccc(C(=O)O)n3)nn2)nc(N)n1	92.6
Cc1c(C#N)cccc1-c1cc(-c2cn(Cc3cccc(C(N)=O)n3)nn2)nc(N)n1	103
COC(=O)c1cccc(Cn2cc(-c3cc(-c4cccc(C#N)c4C)nc(N)n3)nn2)n1	91.3

* * *

- Protocol Notes: Metabolic stability in human liver microsomes
- Format: in vitro ADME
- Conditions: male, human, microsomes
Measured Property: remaining at 10 min, 0.49 µM

Compound	Reading
Cc1c(C#N)cccc1-c1cc(-c2cn(Cc3cccc(C(C)(C)O)n3)nn2)nc(N)n1 [AB928, reference compound]	96.2%
Cc1c(C#N)cccc1-c1cc(-c2cn(Cc3cccc(C#N)n3)nn2)nc(N)n1	96.3%
Cc1c(C#N)cccc1-c1cc(-c2cn(Cc3cccc(C(N)=O)n3)nn2)nc(N)n1	98%

* * *

- Target Entity: human A2A AR (Homo sapiens, UniProt P29274)
- Protocol Notes: cAMP functional assay in CHO-K1/ADORA2A/Gα15 cells (NECA-stimulated, HTRF)
- Type: cell-based
- Conditions: CHO-K1; compound at 100 nM; relative to ZM241385 at 1 μM; mean ± SEM; read-out: hA2A AR (%) inhibition of cAMP, 100 nM
We use 60% as the dividing line for inhibition at 0.1 µM: on or above the line is Condition met, below is Condition not met.

Smiles Data	Label
COc1ccc(Cn2cc(-c3cc(-c4cccc(C#N)c4C)nc(N)n3)nn2)cc1	Condition not met
COC(=O)c1cccc(Cn2cc(-c3cc(-c4cccc(C#N)c4C)nc(N)n3)nn2)n1	Condition met
Cc1c(C#N)cccc1-c1cc(-c2cn(Cc3ccc4ccccc4n3)nn2)nc(N)n1	Condition not met
Cc1c(C#N)cccc1-c1cc(-c2cn(Cc3cccc(C#N)n3)nn2)nc(N)n1	Condition met
Cc1c(C#N)cccc1-c1cc(-c2cn(Cc3cccc(C(N)=O)n3)nn2)nc(N)n1	Condition met
Cc1c(C#N)cccc1-c1cc(-c2cn(Cc3cccc(C(=O)O)n3)nn2)nc(N)n1	Condition not met
Cc1c(C#N)cccc1-c1cc(-c2cn(Cc3cccc(-c4ncc[nH]4)n3)nn2)nc(N)n1	Condition not met
Cc1c(C#N)cccc1-c1cc(-c2cn(Cc3ccc4cccc(N)c4n3)nn2)nc(N)n1	Condition not met

* * *

- Target Entity: human A2A AR (Homo sapiens, UniProt P29274)
- Protocol Notes: cAMP functional assay in CHO-K1/ADORA2A/Gα15 cells (NECA-stimulated, HTRF);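 also: inhibition of NECA-driven intracellular cAMP build-up in the A2A-expressing cells, quantified with cAMP-d2 plus Eu3+-labelled anti-cAMP detection reagent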
- Assay type: cell-based
- Conditions: CHO-K1; compound at 1000 nM; relative to ZM241385 at 1 μM; mean ± SEM; read-out: hA2A AR (%) inhibition of cAMP, 1000 nM
Measured Property: inhibition at 1 µM (%)

Smiles Data	Target Entity	Measured Property	Output Unit	Reading
Cc1c(C#N)cccc1-c1cc(-c2cn(Cc3cccc(-c4ncc[nH]4)n3)nn2)nc(N)n1	human A2A AR (Homo sapiens, UniProt P29274)	inhibition at 1 µM	%	107
Cc1c(C#N)cccc1-c1cc(-c2cn(Cc3cccc(C(=O)NCCO)n3)nn2)nc(N)n1	human A2A AR (Homo sapiens, UniProt P29274)	inhibition at 1 µM	%	101
Cc1c(C#N)cccc1-c1cc(-c2cn(Cc3ccc4ccccc4n3)nn2)nc(N)n1	human A2A AR (Homo sapiens, UniProt P29274)	inhibition at 1 µM	%	43.5
COc1cccc(Cn2cc(-c3cc(-c4cccc(C#N)c4C)nc(N)n3)nn2)c1	human A2A AR (Homo sapiens, UniProt P29274)	inhibition at 1 µM	%	69.6
Cc1c(C#N)cccc1-c1cc(-c2cn(Cc3cccc(C#N)n3)nn2)nc(N)n1	human A2A AR (Homo sapiens, UniProt P29274)	inhibition at 1 µM	%	92.4
Cc1c(C#N)cccc1-c1cc(-c2cn(Cc3cccc(C(=O)OC(C)C)n3)nn2)nc(N)n1	human A2A AR (Homo sapiens, UniProt P29274)	inhibition at 1 µM	%	67.8
CC(C)(O)c1cccc(Cn2cc(-c3cc(-c4cccc(CF)c4)nc(N)n3)nn2)n1	human A2A AR (Homo sapiens, UniProt P29274)	inhibition at 1 µM	%	93.6
COc1ccc(Cn2cc(-c3cc(-c4cccc(C#N)c4C)nc(N)n3)nn2)cc1	human A2A AR (Homo sapiens, UniProt P29274)	inhibition at 1 µM	%	54.8

* * *

- Target Entity: human A2A AR (Homo sapiens)
- Protocol Notes: cAMP functional assay in CHO-K1/ADORA2A/Gα15 cells (NECA-stimulated, HTRF)
- Type: cell-based
- Conditions: CHO-K1; compound at 10 nM; relative to ZM241385 at 1 μM; mean ± SEM; read-out: hA2A AR (%) inhibition of cAMP, 10 nM
Criterion: inhibition at 0.01 µM meeting or surpassing 20%. Met: met. Not met: not met.

Smiles Data	Label
Cc1c(C#N)cccc1-c1cc(-c2cn(Cc3cccc(C(=O)O)n3)nn2)nc(N)n1	met
COC(=O)c1cccc(Cn2cc(-c3cc(-c4cccc(C#N)c4C)nc(N)n3)nn2)n1	met
Cc1c(C#N)cccc1-c1cc(-c2cn(Cc3cccc(C(=O)OC(C)C)n3)nn2)nc(N)n1	met
Cc1c(C#N)cccc1-c1cc(-c2cn(Cc3cccc(C(=O)N4CC(O)C4)n3)nn2)nc(N)n1	met
COc1ccc(Cn2cc(-c3cc(-c4cccc(C#N)c4C)nc(N)n3)nn2)cc1	not met
Cc1c(C#N)cccc1-c1cc(-c2cn(Cc3cccc(C#N)n3)nn2)nc(N)n1	met
Cc1c(C#N)cccc1-c1cc(-c2cn(Cc3cccc(C(=O)NCCO)n3)nn2)nc(N)n1	met
COc1cccc(Cn2cc(-c3cc(-c4cccc(C#N)c4C)nc(N)n3)nn2)c1	met
Cc1c(C#N)cccc1-c1cc(-c2cn(Cc3ccc4ccccc4n3)nn2)nc(N)n1	met
Cc1c(C#N)cccc1-c1cc(-c2cn(Cc3ccc4cccc(N)c4n3)nn2)nc(N)n1	met
Cc1ccc(-c2cc(-c3cn(Cc4cccc(C(C)(C)O)n4)nn3)nc(N)n2)o1	not met
Cc1c(C#N)cccc1-c1cc(-c2cn(Cc3cccc(C(N)=O)n3)nn2)nc(N)n1	met
CC(C)(O)c1cccc(Cn2cc(-c3cc(-c4cccc(CF)c4)nc(N)n3)nn2)n1	met
